src = a collection of fitness landscapes (doi:10.1126/science.1257360)

B1: PhoQ; a variant is named by its letters at X, in order, P23837 (parent)
chain: MKKLLRLFFPLSLRVRFLLATAAVVLVLSLAYGMVALIGYSVSFDKTTFRLLRGESNLFYTLAKWENNKLHVELPENIDKQSPTMTLIYDENGQLLWAQRDVPWLMKMIQPDWLKSNGFHEIEADVNDTSLLLSGDHSIQQQLQEVREDDDDAEMTHSVAVNVYPATSRMPKLTIVVVDTIPVELKSSYMVWSWFIYVLSANLLLVIPLLWVAAWWSLRPIEALAKEVRELEEHNRELLNPATTRELTSLVRNLNRLLKSERERYDKYRTTLTDLTHSLKTPLXXLQXXLRSLRSEKMSVSDAEPVMLEQISRISQQIGYYLHRASMRGGTLLSRELHPVAPLLDNLTSALNKVYQRKGVNISLDISPEISFVGEQNDFVEVMGNVLDNACKYCLEFVEISARQTDEHLYIVVEDDGPGIPLSKREVIFDRGQRVDTLRPGQGVGLAVAREITEQYEGKIVAGESMLGGARMEVIFGRQHSAPKDE

# Variants of: B1
# assay.details: enrichment ratio after two sorts for PhoP signalling (ratio (wild type AVST 3.29)); higher = more functional
# condition.summary: with PhoP (E. coli)
In all, about 140,000 sequences were measured (“enrichment ratio after two sorts for PhoP signalling”: median about 0, highest 2% from about 11 on). The sample holds the highest values, similar sequences and a random draw of the others, so the mix is not that of the screen.
test.readout: enrichment ratio

Before answering, review these 5 worked examples.
>  <changes>
TAWM

>  <enrichment ratio>
9.41

$$$$
>  <changes>
HNFA

>  <enrichment ratio>
≤ 0.25

$$$$
>  <changes>
PVHR

>  <enrichment ratio>
≤ 0.25

$$$$
>  <changes>
SVFE

>  <enrichment ratio>
≤ 0.25

$$$$
>  <changes>
SLDR

>  <enrichment ratio>
≤ 0.25

$$$$

Query block: Requested read-out: enrichment ratio. Entry: `VVQA`
Result block: ≤ 0.25

Query block: Another: `MTTD`
Result block: ≤ 0.25

Query block: Another: `KANM`
Result block: ≤ 0.25

Query block: Another: `FEVM`
Result block: 11.6

Query block: Another: `GTVM`
Result block: 36.9

Query block: Another: `NGCY`
Result block: ≤ 0.25
